assay: NCI Yeast Anticancer Drug Screen. Data for the mec2-1 strain (AID 157); conditions: S. cerevisiae mec2-1 strain, at 5.0 µM (retest, dose inferred, filed as 0.5), hits give high values
The panel holds about 79,000 compounds, 15% with a hit somewhere; the sample as a whole holds those more often.
Quantity Name: growth inhibition (%)
Number in %, nothing else.

Some compounds with recorded growth inhibition:
{"Chemical Smiles": "C=CCNC(=O)NC1=CSC2=NC(=O)C3(NN12)c1ccccc1-c1ccccc13", "growth inhibition, %": -13}
{"Chemical Smiles": "C/C(Cl)=N\\OC(=O)Nc1ccc(C)cc1", "growth inhibition, %": -2}

Can you share its growth inhibition? I mean this compound: `N#Cc1c(-c2ccc(Cl)cc2)c(-c2ccc(Cl)cc2)nn(CCOC(=O)CCC(=O)O)c1=O` -3

###

assay: NCI Yeast Anticancer Drug Screen. Data for the bub3 strain (AID 167); conditions: S. cerevisiae bub3 mutant strain, at 5.0 µM (retest, dose inferred, filed as 0.5), hits give high values
Compounds without any hit were thinned out: in the full panel of roughly 79,000, 15% have a hit.
Here the recorded growth inhibition is given for each entry.
Number in %, nothing else.

Some compounds with recorded growth inhibition:
{"Compound": "Nc1c(O)c(Cl)cc(Cl)c1Cl", "Unit Descriptor": "%", "growth inhibition": 5}
{"Compound": "COc1ccc(NC(=O)OC(C)C)c(OC)c1", "Unit Descriptor": "%", "growth inhibition": 15}
{"Compound": "O=C1NC(=O)N(c2ccc(Cl)c(Cl)c2)C1=O", "Unit Descriptor": "%", "growth inhibition": -5}
{"Compound": "CC1CC(C)C(C)C(CO)C1 (stereo not drawn)", "Unit Descriptor": "%", "growth inhibition": 0}

Can you share its growth inhibition? I mean this compound: `O=C(NNC(=O)c1cccc(C(=O)NNC(=O)c2ccc(Cl)c(Cl)c2)n1)c1ccc(Cl)c(Cl)c1` 61

Can you share its growth inhibition? I mean this compound: `CC(C)(C)c1ccc(OC(=O)Nc2ccc(Cl)cc2[N+](=O)[O-])c(Br)c1` 1

Can you share its growth inhibition? I mean this compound: `C#CC(C)(C)Nc1c2ccccc2nc2ccccc12` -2

Can you share its growth inhibition? I mean this compound: CN(Cc1cnc2nc(N)nc(N)c2n1)c1ccc(C(=O)NC(CCC(=O)O)C(=O)O)cc1 (stereo not drawn) 1

Can you share its growth inhibition? I mean this compound: O=C(O)C1CC2C3(Cl)C(Cl)=C(Cl)C(Cl)C2(CC1c1c2ccc(=O)c(O)c-2oc2c(O)c(O)ccc12)C3(Cl)Cl (stereo not drawn) -2

Can you share its growth inhibition? I mean this compound: `Cn1cnc([N+](=O)[O-])c1Sc1nc2cccnc2s1` 38

Can you share its growth inhibition? I mean this compound: `CN(C)CCCNc1ccc2c(=O)n(CCN(C)C)c(=O)n3c4ccccc4c(=O)c1c23` 61

Can you share its growth inhibition? I mean this compound: `CCc1ccc(-c2ccccc2)cc1` 9

Can you share its growth inhibition? I mean this compound: `CCC(CC)COC(=O)C(C)=O` 0

Can you share its growth inhibition? I mean this compound: `CC(=O)/C=C1\C(=O)Nc2ccccc21` 12

Can you share its growth inhibition? I mean this compound: COc1cc(C(c2cc3c(cc2O)OCO3)N2CCOCC2)cc(OC)c1OC (stereo not drawn) 2

Can you share its growth inhibition? I mean this compound: `Nc1n[n+](-c2ccccc2)no1` 43
